Target: Beta-2 adrenergic receptor (Homo sapiens)
Experiment: beta2AR agonists driving receptor internalization, pilot screen, cell-based, FAP fluorogen, flow cytometry, validation set (AID 504459);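 further: agonist-driven loss of surface beta2AR via internalization measured by FAP dye flow cytometry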
Conditions: Am2.2-beta2AR cells, FAP surface receptor flow cytometry; at 10 µM; stronger effect = higher value
recordedEndpoint: response (%)

>>> df
                                   compound  recordedendpoint  experimentalresult
0  COc1ccc(C2C3C(C)=NN=C3CC(C)(O)C2C(C)=O)cc1 (centres undefined)          response               -1.78
1     CN1CCc2cccc3c2[C@H]1Cc1ccc(O)c(O)c1-3          response                6.81
2           Cc1ccc(CSCC(=O)NCCCN2CCOCC2)cc1          response               -1.57
3  CCCCC[C@H](O)/C=C/[C@@H]1[C@@H](C/C=C\CCCC(=O)OC)[C@@H](O)C[C@H]1O          response                4.64
4                CC(=O)c1cn(C)c(=O)[nH]c1=O          response                72.3
5                CCN(CC)C(=S)SSC(=S)N(CC)CC          response                14.2
6               C=CCc1cc(Cl)ccc1OCCOCCN(C)C          response                3.31
7  C=C(C)COc1ccc(-c2nc(N)ncc2-c2ccc(OC)cc2)c(O)c1          response               -10.8
8  CC(C)CC(=O)OC1C(N2CCOCC2)c2c(ccc(/C=C/C(=O)N3CCOCC3)c2O)OC1(C)C (centres undefined)          response                84.7

* * *

Assay: LAP4-GFP expression modulators in yeast, confirmation, cell-based, cherry picks, flow cytometry, mother/daughter gates (AID 2271);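 further: ratio of sample to DMSO plate mean so 100% equals DMSO level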
Conditions: S. cerevisiae LAP4-GFP strain, 3 h, measured here: mother cell gate response, at 10 µM, stronger effect = higher value, 100 means same as DMSO control
recordedEndpoint: GFP response relative to DMSO (%)

In [3]: df
Out[3]:
                                    compound  experimentalresult
 0  CCCc1[nH]nc2c1C(c1cc(OC)ccc1F)C(C#N)=C(N)O2 (stereo not drawn)                 100
 1                 Oc1ccc2ccccc2c1N=Nc1nccs1                 165
 2               Cc1cc(C)nc(/N=c2/ssnc2Cl)c1                 143
 3                 CCCCCCCCC/C(=N\O)c1ccccn1                 213
 4  CC1=NNC(=O)/C1=C\c1cn(-c2ccccc2)nc1-c1ccccc1                 236
 5             CCC(=O)N/C(N)=N/c1nc2ccccc2o1                 112
 6   Cc1nn2c(N3CCCC3)cc(C(C)C)nc2c1-c1ccccc1                 103
 7             Cc1c(Br)c(O)c(Br)c2sc(=O)oc12                 129
 8     C/C(=N\NC(=O)c1cc2ccccc2cc1O)c1ccccn1                 231
 9  CCOC(=O)c1ccc(NC(=O)c2nc(S(=O)(=O)Cc3ccccc3)ncc2Cl)cc1                95.2
10  Cc1nn(Cc2c(Cl)cccc2Cl)c(C)c1NC(=O)c1sc2ccccc2c1Cl                98.5
11  O=S(=O)(c1ccc(Oc2ccc(Br)cc2)cc1)N1CCOCC1                83.7
12        CN(C)c1ccc(/C=C/c2cc[n+](C)cc2)cc1                 159
13  Cc1nonc1C(=O)N/N=C/c1ccc([N+](=O)[O-])o1                 113
14  Cc1cccn2c(=O)c(/C=C(\C#N)C(=O)NC3CCS(=O)(=O)C3)c(N3CC(C)OC(C)C3)nc12 (stereo not drawn)                92.9
15  NS(=O)(=O)c1ccc(Sc2ccccn2)c([N+](=O)[O-])c1                98.3
16  CCOc1ccccc1NC(=O)c1nc(S(=O)(=O)Cc2cccc(C)c2)ncc1Cl                 103
17             O=[N+]([O-])c1cc(O)c2ncccc2c1                 204

* * *

Experiment: LAP4-GFP expression modulators in yeast, confirmation, cell-based, cherry picks, flow cytometry, mother/daughter gates (AID 2271);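 further: ratio of sample to DMSO plate mean so 100% equals DMSO level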
Conditions: S. cerevisiae LAP4-GFP strain, 3 h, measured here: mother cell gate response, at 10 µM, stronger effect = higher value, 100 means same as DMSO control
recordedEndpoint: GFP response relative to DMSO

In [3]: df
Out[3]:
                                    compound  experimentalresult
 0     O=C(OCc1cccc([N+](=O)[O-])c1)c1cnccn1                105%
 1  Cc1ccc(S(=O)(=O)N(Cc2ccccc2)Cc2ccco2)cc1               90.1%
 2  CC1(C(=O)OCc2cc(=O)n3cc(Br)ccc3n2)CC1(Cl)Cl (stereo not given)                139%
 3  Cc1ccsc1C(=O)N(Cc1nnc(-c2ccccc2Cl)o1)C1CC1                100%
 4  COc1ccc(-c2nnc(NC(=O)c3ccc([N+](=O)[O-])o3)o2)c(OC)c1               96.1%
 5     Cc1cccc(NC(=O)/C(C#N)=C/c2ccccc2Cl)n1                145%
 6  COCCn1c(=N)c(C(=O)NCc2ccco2)cc2c(=O)n3ccccc3nc21               86.3%
 7      O=S(=O)(c1ccccc1)c1ncc(C(F)(F)F)cc1O               99.5%
 8    O=C(Cc1ccc(Cl)cc1)NNC(=S)NC(=O)c1cccs1                151%
 9  O=C(COC(=O)c1n[nH]c2ccccc12)c1cc(F)ccc1F               98.3%
10  CCc1nnc(NC(=O)CSc2nnc(C3CCCCC3)n2-c2cccc(Cl)c2)s1               99.5%
11  COc1ccc(C(=O)Oc2ccc(/C=N/NC(=O)c3ccccc3OC)cc2[N+](=O)[O-])cc1               86.7%
12   CCOc1ccc(-c2nc(-c3ccc(OC)cc3)no2)cc1OCC               93.6%
13  CCOc1ccc(Nc2ccc(C(=O)O)cc2[N+](=O)[O-])cc1                100%
14  COc1ccc(C2=NN(S(C)(=O)=O)C(c3ccc4nccnc4c3)C2)cc1 (stereo not given)                103%
15   O=C(O)c1ccc(Sc2ccccn2)c([N+](=O)[O-])c1               95.1%
16     Oc1ccccc1/C=N/c1c(-c2ccco2)nc2ccccn12               97.2%
17        Cc1nn(C(=O)c2ccco2)c(C)c1Sc1ccccc1               95.4%
18  CCOC(=O)c1ccc(NC(=O)CCc2nc(-c3ccccc3Cl)no2)cc1                103%
19  Cc1nc2ccccc2c(=O)n1/N=C/c1ccc([N+](=O)[O-])o1                121%

* * *

Assay: modulators of MEP2-GFP levels in yeast, confirmation, S. cerevisiae, flow cytometry GFP, cherry picks (AID 2272);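 further: ratio of well signal to plate DMSO mean so 100% equals DMSO level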
Details: S. cerevisiae MEP2-GFP strain, 3 h, at 10 µM
Calls of active or inactive are those of the source.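 Rule for the calls: active = GFP response above 150% of the DMSO control; inconclusive = Fewer than 70 cells counted for a yeast strain; inactive = the rest.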
Labels: active, inactive

                                    compound  categorylabel
 0   CC(=O)c1ccc(Sc2ccccn2)c([N+](=O)[O-])c1       inactive
 1  O=[N+]([O-])c1cc(S(=O)(=O)C(F)(F)F)ccc1Sc1nc2ccccc2s1       inactive
 2      c1cnc2c(SCc3ccc(-c4nnco4)cc3)cccc2c1       inactive
 3         CCOc1c(Br)ccc2c1sc1nc[nH]c(=O)c12       inactive
 4          O=C(c1ccccc1F)N1CCN(c2ccccc2)CC1       inactive
 5  CCCc1[nH]nc2c1C(c1cccc(OC(=O)c3ccco3)c1)C(C#N)=C(N)O2 (stereo not drawn)       inactive
 6  O=C1c2ccccc2C(=O)C2OC12 (stereo not drawn)         active
 7  C/C(=N/NS(=O)(=O)c1ccccc1)c1ccc(NC(=O)C(F)(F)F)cc1       inactive
 8  CC(C)(C)NC(=O)CN(C(=O)CCC(=O)Nc1nccs1)c1ccc(F)cc1       inactive
 9  Cc1ccc(N2C(=O)C3C4C=CC(CNC(=S)Nc5ccc(Cl)cc5)(O4)C3C2=O)cc1 (stereo not drawn)       inactive
10  O=C(CS(=O)c1ccccc1[N+](=O)[O-])Oc1ccc(Br)cc1 (stereo not drawn)       inactive
11  CCOc1ccc(N2C(=O)C(Cl)=C(Nc3ccccc3O)C2=O)cc1       inactive
12  Cc1c(C)c2ccc(OCC(=O)NCCCn3ccnc3)cc2oc1=O       inactive
